Tested on: human ovarian cancer cells A2780
Experiment: Cell anti-proliferation assay (MTT), A2780
Type: cell-based
Conditions: Homo sapiens, 120 h, incubated for 5 days
reported.property: IC50

CN1CCCn2c1nc1c(F)cc(-c3nc(N[C@@H]4CCOC[C@H]4O)ncc3C(F)(F)F)cc12 ... 500 to 2000 nM
C[C@H]1CCN(S(C)(=O)=O)c2nc3c(F)cc(-c4nc(N[C@@H]5CCOC[C@H]5O)ncc4Cl)cc3n21 ... 500 to 2000 nM
CN1CCCn2c1nc1c(F)cc(-c3nc(Nc4ccc(C#N)cc4)ncc3Cl)cc12 ... ≤ 500 nM
C[C@H]1CCN(c2ccccc2C#N)c2nc3c(F)cc(-c4nc(N[C@@H]5CCOC[C@H]5O)ncc4Cl)cc3n21 ... ≤ 500 nM
C[C@H]1CCN(C)c2nc3c(F)cc(-c4nc(Nc5ccncc5)ncc4Cl)cc3n21 ... ≤ 500 nM
C[C@H]1CCN(c2ccccc2F)c2nc3c(F)cc(-c4nc(N[C@@H]5CCOC[C@H]5O)ncc4Cl)cc3n21 ... ≤ 500 nM
C[C@H]1CCN(C2CC2)c2nc3c(F)cc(-c4nc(N[C@@H]5CCOC[C@H]5O)ncc4Cl)cc3n21 ... ≤ 500 nM

Moving on to another compound below.
Query CCN1CCN(Cc2ccc(Nc3ncc(Cl)c(-c4cc(F)c5nc(N(C)C)n(C(C)C)c5c4)n3)nc2)CC1 yields IC50 of ≤ 500 nM

src = patent EP4775575A1
